# procedure details: Aqueous solubility of the compounds
# Format: physicochemical
# conditions: 50 mM citrate buffer, pH 4, aqueous buffer, thermodynamic from solid, 50 mM citrate pH4.0, 25° C.
For each entry below, report its solubility at 24 h value.
Answers are plain numbers, in µg/mL.

These solved cases illustrate the format of a correct answer.
>>> print(df.to_string())
                                   compound  readout_value
0  COC[C@H](NC(=O)[C@H](CCc1ccccc1)NC(=O)c1cc(CN2CCOCC2)on1)C(=O)N[C@@H](Cc1ccccc1)C(=O)[C@@]1(C)CO1 [CX13-603]            520
1  COC[C@H](NC(=O)c1cc(C)on1)C(=O)N[C@@H](Cc1ccncc1)C(=O)N[C@@H](CC(C)C)C(=O)[C@@]1(C)CO1 [CX13-501]           4480
2  COC[C@H](NC(=O)[C@H](CCc1ccccc1)NC(=O)Cc1ccc(CN2CCOCC2)cc1)C(=O)N[C@@H](CC(C)C)C(=O)[C@@]1(C)CO1 [CX13-606]           3730
3  Cc1ncc(C(=O)N[C@@H](CCc2ccccc2)C(=O)N[C@@H](Cc2ccncc2)C(=O)N[C@@H](CC(C)C)C(=O)[C@@]2(C)CO2)s1 [CX13-137]            910
4  CC(C)C[C@H](NC(=O)[C@H](Cc1ccncc1)NC(=O)[C@H](CCc1ccccc1)NC(=O)Cc1ccc(CN2CCOCC2)cc1)C(=O)[C@@]1(C)CO1 [CX13-133]           6360

Hi, could you look up solubility at 24 h for each item in my list?
1. C[C@]1(C(=O)[C@H](Cc2ccccc2)NC(=O)[C@H](Cc2cscn2)NC(=O)[C@H](CCc2ccccc2)NC(=O)c2cc(CN3CCOCC3)on2)CO1 [CX13-605]
2. COC[C@H](NC(=O)[C@H](CCc1ccccc1)NC(=O)c1cnc(C)s1)C(=O)N[C@@H](Cc1ccccc1)C(=O)[C@@]1(C)CO1 [CX13-705]
3. COC[C@H](NC(=O)c1cnc(C)s1)C(=O)N[C@@H](COC)C(=O)N[C@@H](Cc1ccccc1)C(=O)[C@@]1(C)CO1 [CX13-709]

[120, 20, 570]

---

# assay target: Constitutive 20S proteasome trypsin-like (T-L) activity (Homo sapiens (Human), UniProt P49720+Q99436)
# procedure details: Constitutive 20S proteasome T-L activity inhibition, fluorogenic substrate Boc-Leu-Arg-Arg-AMC
# Type: biochemical
# conditions: purified human 20S proteasome, room temperature, one hour; read-out: Proteasome inhibition IC50 (nM) Constitutive 20S proteasome T-L
For each entry below, report its IC50 value.
Numbers only, in nM.

These solved cases illustrate the format of a correct answer.
>>> df
                                     smiles  unit_abbrev  readout_value
0  CC(C)C[C@H](NC(=O)[C@H](Cc1ccncc1)NC(=O)[C@H](CCc1ccccc1)NC(=O)Cc1ccc(CN2CCOCC2)cc1)C(=O)[C@@]1(C)CO1           nM            443
1  Cc1ncc(C(=O)N[C@@H](CCc2ccccc2)C(=O)N[C@@H](Cc2ccncc2)C(=O)N[C@@H](CC(C)C)C(=O)[C@@]2(C)CO2)s1           nM          11900
2  COC[C@H](NC(=O)[C@H](CCc1ccccc1)NC(=O)c1cnc(C)s1)C(=O)N[C@@H](Cc1ccccc1)C(=O)[C@@]1(C)CO1           nM          15800
3  CC(=O)N[C@@H](CCc1ccccc1)C(=O)N[C@@H](Cc1ccncc1)C(=O)N[C@@H](CC(C)C)C(=O)[C@@]1(C)CO1           nM           3600
4  COC[C@H](NC(=O)[C@H](CCc1ccccc1)NC(=O)Cc1ccc(CN2CCOCC2)cc1)C(=O)N[C@@H](Cc1ccccc1)C(=O)[C@@]1(C)CO1           nM            490
5  Cc1cc(C(=O)N[C@@H](CCc2ccccc2)C(=O)N[C@@H](Cc2ccncc2)C(=O)N[C@@H](CC(C)C)C(=O)[C@@]2(C)CO2)no1           nM          13400

Next item in the queue.
Reported IC50 for CC(C)C[C@H](NC(=O)[C@H](CCc1ccccc1)NC(=O)CN1CCOCC1)C(=O)N[C@@H](Cc1ccccc1)C(=O)[C@@]1(C)CO1 : what is it? 9950
